Values compiled from PubChem BioAssay (EPA / NIEHS).

Molecular target: human Thyroid Receptor alpha (THRa1), THRA (gene 7067)
Experiment: ATG_THRa1_TRANS: Attagene TRANS-FACTORIAL HepG2 Assay for human Thyroid Receptor alpha (THRa1) (AID 2283014)
Description: ATG_TRANS is a cell-based, multiplexed-readout assay that uses HepG2, a human liver cell line, with measurements taken at 24 hours after chemical dosing in a 24-well plate.ATG_THRa1_TRANS is one of 30 assay component(s) measured or calculated from the ATG_TRANS assay. […] This assay endpoint, ATG_THRa1_TRANS, was analyzed in the positive analysis fitting direction relative to DMSO as the negative control and baseline of activity. […]
Results filed as inconclusive are left out. Calls of active or inactive are those of the source. Rule for the calls: active = hit-call score of the fitted dose curve at least 0.9, where 1 is the maximum; inconclusive = response in the unintended direction; inactive = score below 0.9.
Property: outcome

Below, 6 compounds whose answers are already recorded.
> print(dat)
                     entry.smiles                         system.under.test  property  observed.measurement
1            CC=Cc1ccc(OC)c(OC)c1  human Thyroid Receptor alpha (THRa1), THRA (gene 7067)   outcome              inactive
2    C[N+](C)(C)CCCCCC[N+](C)(C)C  human Thyroid Receptor alpha (THRa1), THRA (gene 7067)   outcome              inactive
3                  C=CC(=O)OCCC#N  human Thyroid Receptor alpha (THRa1), THRA (gene 7067)   outcome              inactive
4                    CCOc1ccccc1O  human Thyroid Receptor alpha (THRa1), THRA (gene 7067)   outcome              inactive
5  Nc1ccc(N)c2c1C(=O)c1ccccc1C2=O  human Thyroid Receptor alpha (THRa1), THRA (gene 7067)   outcome              inactive
6       C/C=C(\C)C(=O)OCCc1ccccc1  human Thyroid Receptor alpha (THRa1), THRA (gene 7067)   outcome              inactive

Form field - read-out: outcome; system: human Thyroid Receptor alpha (THRa1), THRA (gene 7067); submitted item: O=C(Nc1ccc2c(O)c(N=Nc3ccc(N=Nc4ccc(S(=O)(=O)O)cc4)cc3)c(S(=O)(=O)O)cc2c1)c1ccccc1
inactive

###

Experiment: ATG_SREBP_CIS: Attagene CIS-FACTORIAL HepG2 Assay for human Sterol Regulatory Element Binding (SREBP) (AID 2282962)
Conditions: HepG2 Attagene cis-factorial SREBP reporter, mRNA; actives raise or lower the signal
Description: ATG_CIS is a cell-based, multiplexed-readout assay that uses HepG2, a human liver cell line, with measurements taken at 24 hours after chemical dosing in a 24-well plate.ATG_SREBP_CIS is one of 52 assay component(s) measured or calculated from the ATG_CIS assay. […] This assay endpoint, ATG_SREBP_CIS, was analyzed with bidirectional fitting relative to DMSO as the negative control and baseline of activity. […]
Active and inactive are the calls of the source. How the source made its calls: active means hit-call score of the fitted dose curve at least 0.9, where 1 is the maximum; inactive means score below 0.9.
I would appreciate it if you answered using one of these outcomes: 1 (yes) (active), 0 (no) (inactive)

> print(dat)
                                   molecule   label
1              COCCOC(=O)c1ccccc1C(=O)OCCOC  0 (no)
2            CC(=O)C(C)O (stereo not drawn)  0 (no)
3             NC1CCCCC1N (stereo not drawn)  0 (no)
4  C=C1C[C@]23C[C@@]1(O)CC[C@H]2[C@@]12C=C[C@H](O)[C@@](C)(C(=O)O1)[C@H]2[C@@H]3C(=O)O  0 (no)
5  O=C1OC[C@H](Cc2cccc(O)c2)[C@H]1Cc1cccc(O)c1  0 (no)

Test call, this molecule: COC(C)(C)CCO
0 (no)

Test call, this molecule: C=Cc1ccncc1
1 (yes)

Test call, this molecule: C#CC(C)N(C)C(=O)Nc1ccc(Cl)cc1 (stereo not drawn)
0 (no)

Test call, this molecule: COC(=O)c1cccnc1
0 (no)

Test call, this molecule: C=CC(C)C#N (stereo not drawn)
0 (no)

Test call, this molecule: O=C(Nc1ccc2c(O)c(N=Nc3ccc(N=Nc4ccc(S(=O)(=O)O)cc4)cc3)c(S(=O)(=O)O)cc2c1)c1ccccc1
0 (no)

Test call, this molecule: Oc1ccc2cc(SSc3ccc4cc(O)ccc4c3)ccc2c1
1 (yes)

Test call, this molecule: CCC(=O)O[C@@H]1C[C@H]2CC[C@]1(C)C2(C)C
0 (no)

###

Molecular target: Nuclear respiratory factor 1 (Homo sapiens)
Assay: ATG_NRF1_CIS: Attagene CIS-FACTORIAL HepG2 Assay for human Nuclear Respiratory Factor 1 (NRF1) Orphan Gene (AID 2282987)
Settings: HepG2 NRF1 cis-element reporter, Attagene multiplex; actives raise or lower the signal
The source made the active and inactive calls. The calls were made as follows: active = hit-call score of the fitted dose curve at least 0.9, where 1 is the maximum; inactive = score below 0.9.
I would appreciate it if you answered using one of these outcomes: active, inactive

Sample answers from the record:
> print(dat)
                                   compound     label
1  O=C(c1ccccc1)C(O)c1ccccc1 (centres undefined)  inactive
2  CC(CN=Cc1ccccc1O)N=Cc1ccccc1O (centres undefined)    active
3       CC1(C)C2=CCCC(C)(C)[C@]23CC[C@H]1C3  inactive

Test call, this compound: C=C(C)C(=O)OCCOC1CC2CC1C1C=CCC21 (centres undefined)
inactive

Test call, this compound: CC1CC(O)CC(C)(C)C1 (centres undefined)
inactive

Test call, this compound: CC=Cc1ccc(OCC)c(O)c1
inactive

###

Target: Paired box protein Pax-6 (Homo sapiens)
Experiment: ATG_Pax6_CIS: Attagene CIS-FACTORIAL HepG2 Assay for human Paired Box 6 (PAX6) (AID 2282956)
Details: HepG2 CIS-FACTORIAL PAX6 reporter transcription, RNA readout; actives raise or lower the signal
Activity calls are given as the source filed them. The calls were made as follows: active = hit-call score of the fitted dose curve at least 0.9, where 1 is the maximum; inactive = score below 0.9.
I would appreciate it if you answered using one of these outcomes: active, inactive

Sample answers from the record:
> print(dat)
                                   compound     label
1        CCCCCCC(CO)CCCC (stereo not drawn)  inactive
2  CC(=O)O[C@@H]1CC2CCC1(C)C2(C)C (stereo partly drawn)  inactive

Test call, this compound: OCC#CCO
inactive

Test call, this compound: C=C(C)[C@H]1CC=C(C)C(=O)C1
inactive

###

Experiment: ATG_TCF_b_cat_CIS: Attagene CIS-FACTORIAL HepG2 Assay for human T-Cell-Factor with beta-catenin (TCF/b-cat) (AID 2282965)
Details: HepG2 TCF/beta-catenin cis-reporter transcription, actives raise or lower the signal
Active and inactive are the calls of the source. Rule for the calls: active = hit-call score of the fitted dose curve at least 0.9, where 1 is the maximum; inactive = score below 0.9.
I would appreciate it if you answered using one of these outcomes: yes (1) = active, no (0) = inactive

> print(dat)
                                   compound    label
1                 CC(=O)Nc1ccc(C(=O)CCl)cc1   no (0)
2               Nc1ccc(Cl)c([N+](=O)[O-])c1   no (0)
3           ClC(c1ccccc1)(c1ccccc1)c1ccccc1   no (0)
4                           COc1ccc(CCO)cc1   no (0)
5  CC(C=O)Cc1ccc(C(C)(C)C)cc1 (centres undefined)   no (0)
6                            CC(=O)c1ccccn1   no (0)
7  CC(C)(C)CC(C)(C)c1ccc(OCCOCC[N+](C)(C)Cc2ccccc2)cc1  yes (1)
8                               CCOCCOCCOCC   no (0)

Test call, this compound: CCC(C)c1cc([N+](=O)[O-])cc([N+](=O)[O-])c1OC(=O)OC(C)C (centres undefined)
no (0)

Test call, this compound: CC(Oc1cc(Cl)ccc1Cl)C(=O)O (centres undefined)
no (0)

Test call, this compound: CCN(CC)C(=O)N(CC)CC
no (0)

Test call, this compound: CCCCCCCCC=CCCCCCCCC1=NCCN1CCO
no (0)

Test call, this compound: Cc1ccc(C)o1
no (0)

Test call, this compound: CCc1ncc(C)[nH]1
no (0)

###

Target: Retinoic acid receptor alpha (Homo sapiens) (UniProt P10276)
Sequence (P10276 whole entry, looked up): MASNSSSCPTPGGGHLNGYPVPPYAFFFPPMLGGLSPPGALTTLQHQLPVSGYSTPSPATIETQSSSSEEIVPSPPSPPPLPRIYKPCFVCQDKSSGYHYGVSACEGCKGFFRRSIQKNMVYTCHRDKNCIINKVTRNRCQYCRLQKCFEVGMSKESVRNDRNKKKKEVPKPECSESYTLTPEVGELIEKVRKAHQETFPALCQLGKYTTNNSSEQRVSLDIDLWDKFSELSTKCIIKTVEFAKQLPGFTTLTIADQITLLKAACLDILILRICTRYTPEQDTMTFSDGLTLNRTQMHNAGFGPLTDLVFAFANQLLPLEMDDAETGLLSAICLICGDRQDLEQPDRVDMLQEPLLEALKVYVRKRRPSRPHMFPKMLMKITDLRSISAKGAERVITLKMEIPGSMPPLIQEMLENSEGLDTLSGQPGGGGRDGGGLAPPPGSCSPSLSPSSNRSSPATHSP
Test: ATG_DR5_RAR_CIS: Attagene CIS-FACTORIAL HepG2 Assay for human Retinoic Acid Receptor Alpha (RARE), DR5 submotif (AID 2282934)
Conditions: HepG2 Attagene cis-factorial RARE DR5 reporter, mRNA; actives raise or lower the signal
The source made the active and inactive calls. The calls were made as follows: active = hit-call score of the fitted dose curve at least 0.9, where 1 is the maximum; inactive = score below 0.9.
I would appreciate it if you answered using one of these outcomes: active, inactive

> print(dat)
                                   compound     label
1  CCc1cc(Cc2cc(CC)cc(C(C)(C)C)c2O)c(O)c(C(C)(C)C)c1    active
2                Cc1ccc(OC(=O)c2ccccc2O)cc1  inactive
3          CC(C)(CO)[C@@H](O)C(=O)NCCC(=O)O  inactive

Test call, this compound: Brc1ccc(Br)c(Br)c1
inactive

Test call, this compound: CCCCCCC(O)CCCCCCCCCCC(=O)O (centres undefined)
inactive

Test call, this compound: COC(=O)Nc1ccc(Cl)c(Cl)c1
inactive

Test call, this compound: Cc1ccc(S(N)(=O)=O)cc1
inactive

Test call, this compound: CCCC1O[C@@H]2C[C@H]3[C@@H]4CCC5=CC(=O)C=C[C@]5(C)[C@H]4[C@@H](O)C[C@]3(C)[C@]2(C(=O)CO)O1 (some centres undefined)
inactive

Test call, this compound: CCCC(=O)C(CC)Sc1ccoc1C (centres undefined)
inactive

Test call, this compound: Nc1ccccc1[N+](=O)[O-]
inactive

Test call, this compound: C/C=C(\C)C(=O)OCCc1ccccc1
inactive

Test call, this compound: O=[N+]([O-])c1ccc(O)cc1C(F)(F)F
inactive

Test call, this compound: C1CCCCC1
inactive

Test call, this compound: Cc1ccc(C)o1
inactive

Test call, this compound: CCC(C)S (centres undefined)
inactive

Test call, this compound: CC(C)C(OC(=O)c1ccccc1)C(C)(C)COC(=O)c1ccccc1 (centres undefined)
inactive

Test call, this compound: CC(C)CCOC(=O)c1ccccc1
inactive

Test call, this compound: C=C(C)C(=O)OCC(CC)(COC(=O)C(=C)C)COC(=O)C(=C)C
inactive

Test call, this compound: C=C1CC[C@H](O)C/C1=C/C=C1\CCC[C@]2(C)[C@@H]([C@H](C)/C=C/[C@H](C)C(C)C)CC[C@@H]12
active

Test call, this compound: O=C1OC2(c3ccccc31)c1ccc(O)c(Br)c1Oc1c2ccc(O)c1Br
inactive
